Please respond with reported MIC for every item in the list.
# Test system: Enterococcus faecium
# TEST PROTOCOL: Antibacterial activity against vancomycin B resistant Enterococcus faecium isolate SR-23598 by broth dilution method
# Type: functional
# MEASUREMENT PARAMETERS: isolate SR23598

I would be grateful if you could share the reported MIC for Cc1ccc(C(=O)Nc2cccc(CN[C@]3(C)C[C@@H](O[C@@H]4[C@@H](Oc5c6cc7cc5Oc5ccc(cc5Cl)[C@@H](O)[C@@H](N)C(=O)N[C@@H](CC(N)=O)C(=O)N[C@H]7C(=O)N[C@H]5C(=O)N[C@H](C(=O)N[C@H](C(=O)O)c7cc(O)cc(O)c7-c7cc5ccc7O)[C@H](O)c5ccc(c(Cl)c5)O6)O[C@@H](CO)[C@H](O)[C@H]4O)O[C@H](C)[C@@H]3O)c2)c([N+](=O)[O-])c1OCc1ccccc1 .
4 µg/mL

What value of MIC has been recorded for this entry: CN[C@H](CC(C)C)C(=O)N[C@H]1C(=O)N[C@@H](CC(N)=O)C(=O)N[C@H]2C(=O)N[C@H]3C(=O)N[C@H](C(=O)N[C@H](C(=O)O)c4cc(O)cc(O)c4-c4cc3ccc4O)[C@H](O)c3ccc(c(Cl)c3)Oc3cc2cc(c3O[C@H]2O[C@@H](CO)[C@H](O)[C@@H](O)[C@@H]2O[C@@H]2C[C@@](C)(NCc3cccc(NC(=O)c4ccc(C)c(OCc5ccccc5)c4[N+](=O)[O-])c3)[C@@H](O)[C@@H](C)O2)Oc2ccc(cc2Cl)[C@H]1O
0.25 µg/mL

Which value of MIC has been reported for C[C@H]1O[C@H](O[C@@H]2[C@@H](Oc3c4cc5cc3Oc3ccc(cc3Cl)[C@@H](O)[C@@H](N)C(=O)N[C@@H](CC(N)=O)C(=O)N[C@H]5C(=O)N[C@H]3C(=O)N[C@H](C(=O)N[C@H](C(=O)O)c5cc(O)cc(O)c5-c5cc3ccc5O)[C@H](O)c3ccc(c(Cl)c3)O4)O[C@@H](CO)[C@H](O)[C@H]2O)C[C@@](C)(N)[C@H]1O in the records?
> 64 µg/mL

Recorded MIC for CN[C@H](CC(C)C)C(=O)N[C@H]1C(=O)N[C@@H](CC(N)=O)C(=O)N[C@H]2C(=O)N[C@H]3C(=O)N[C@H](C(=O)N[C@H](C(=O)O)c4cc(O)cc(O)c4-c4cc3ccc4O)[C@H](O)c3ccc(c(Cl)c3)Oc3cc2cc(c3O[C@@H]2O[C@H](CO)[C@@H](O)[C@H](O)[C@H]2O[C@H]2C[C@](C)(N)[C@H](O)[C@H](C)O2)Oc2ccc(cc2Cl)[C@H]1O [VANCOMYCIN] , please?
> 64 µg/mL
